# test name: Pharmacokinetic study in rats after single gavage dose, plasma levels by UPLC-MS/MS
# Type: in vivo, Sprague–Dawley Rats
# particulars: Sprague-Dawley, po; rat plasma, intragastric single dose 8.00 mg/kg, n = 6, Mean ± SD
observation type: half-life (h)

• CN(C)Cc1c(C(=O)NCCOc2ccc(C(=O)NO)cc2)oc2ccccc12 [Abexinostat] = 13.8

---

# test name: Pharmacokinetic study in rats after single gavage dose, plasma levels by UPLC-MS/MS
# Assay type: in vivo, Sprague–Dawley Rats
# particulars: Sprague-Dawley, po; rat plasma, intragastric single dose 8.00 mg/kg, n = 6, Mean ± SD
observation type: AUC(0-t) (ng·h/mL)

• CN(C)Cc1c(C(=O)NCCOc2ccc(C(=O)NO)cc2)oc2ccccc12 [Abexinostat] = 461
